- System: NCI-H322M lung
- experiment.summary: NCI-60 one-dose screen, 48 h (100 = growth as untreated, 0 = no growth, -100 = all killed)
- details: 10 µM unless noted
About 83,000 compounds went through this panel and 20% of them were active in at least one assay; those are over-represented in the sample as a whole.
test.readout: growth (%)
Numeric answer only, unit % assumed.

stdin: // growth lookup, key: COC1=C(OC)C(=O)C(CCCCCCCCCCO)=C(C)C1=O
stdout: 112

stdin: // growth lookup, key: OC1CSSC1Cn1cnc2c(Nc3ccc(F)c(Cl)c3)ncnc21 (stereo unspecified)
stdout: 74.1

stdin: // growth lookup, key: CN1CCN(c2ccc(Nc3ncc4[nH]c(=O)n(Cc5ccccc5N)c4n3)cc2)CC1
stdout: 100

stdin: // growth lookup, key: COc1ccc(Cn2cc3c(c2)-c2oncc2CC3)cc1
stdout: 89.6

stdin: // growth lookup, key: O=C(O)/C=C/c1cn(-c2ccccc2)nc1-c1ccc(F)cc1
stdout: 87

stdin: // growth lookup, key: Cc1ccc(OCCOCCOCCOCCOc2ccc(C)n(O)c2=S)c(=S)n1O
stdout: 23.6

stdin: // growth lookup, key: Fc1ccc(/C=C/c2cc(/C=C/c3ccc(F)cc3)n(-c3cc(F)cc(F)c3)n2)cc1
stdout: 86.5

stdin: // growth lookup, key: Cc1[nH]c(C2CC(c3ccc(C(F)(F)F)c(F)c3)=NN2C)c(C)c1C(=O)NCC(F)(F)F (stereo unspecified)
stdout: 92.7

stdin: // growth lookup, key: C=CCn1c(SCC(=O)Nc2ccc(C(=O)/C=C/c3ccc(Cl)cc3)cc2)nnc1-c1ccccc1
stdout: 96.7

stdin: // growth lookup, key: CS(=O)(=O)c1ccc(/C(=N/NC(N)=S)c2ccc(F)cc2)cc1
stdout: 104

stdin: // growth lookup, key: O=C(Nc1ccc(Cl)cc1)C1=NCCCCN1
stdout: 83.5

###

- Test system: SK-OV-3 ovarian
- experiment.summary: NCI-60 one-dose screen, 48 h
- details: 10 µM unless noted
About 83,000 compounds went through this panel and 20% of them were active in at least one assay; those are over-represented in the sample as a whole. Calls of active or inactive are those of the source. Rule for the calls: active = growth percent below 10; inactive = the rest.
Assign a class; possible classes are yes (1) = active, no (0) = inactive

stdin: Please let me know the test result on file for Cc1ccccc1NC(=O)c1sc2nc3c(cc2c1N)CCCC3 .
stdout: no (0)

stdin: Please let me know the test result on file for CCCNNC(=O)c1ccc(CNC(=O)/C=C/c2ccccc2)cc1 .
stdout: yes (1)

stdin: Please let me know the test result on file for CN1CCN(Cc2ccc(NC(=O)c3cncc(C#Cc4cnc(N)c5ccc(C#N)cc45)c3)cc2C(F)(F)F)CC1 .
stdout: yes (1)

stdin: Please let me know the test result on file for O=C(O)/C=C\C(=O)Nc1ccc2c(c1)Cc1cc(F)ccc1-2 .
stdout: no (0)

stdin: Please let me know the test result on file for CNC(=O)c1cc(Oc2ccc3nc(NC(=O)Nc4ccc(F)cc4F)sc3c2)ccn1 .
stdout: no (0)

stdin: Please let me know the test result on file for COc1cc2c(c(OC)c1OC)C(=O)CC(c1cccc(C(=O)Nc3ccc(Br)cc3)c1)O2 (stereo unspecified) .
stdout: no (0)

stdin: Please let me know the test result on file for Oc1ccc(Cc2ccc(O)c3ncccc23)c2cccnc12 .
stdout: yes (1)

stdin: Please let me know the test result on file for CS(=O)(=O)Nc1cc(-c2ccc3ncnc(Nc4cccc(Cl)c4)c3c2)cnc1Cl .
stdout: yes (1)

stdin: Please let me know the test result on file for Cn1cc(-c2nc(-c3c[nH]c4ccncc34)cs2)c2cc(F)ccc21 .
stdout: no (0)

stdin: Please let me know the test result on file for COc1ccc(N2C(=O)/C(=C/C(Cl)=C/c3ccc([N+](=O)[O-])cc3)SC2=S)cc1 .
stdout: no (0)

stdin: Please let me know the test result on file for CCN(CC)CCCNc1cc(OC)cc2cccnc12 .
stdout: no (0)

stdin: Please let me know the test result on file for N#CC1=C(N)Oc2c(ccc3cccnc23)C1c1ccccc1 (stereo unspecified) .
stdout: no (0)

stdin: Please let me know the test result on file for O=C1Nc2ccccc2/C1=C/c1cccn1CCCCCCn1c2ccccc2c(=O)c2ccccc21 .
stdout: no (0)

stdin: Please let me know the test result on file for CCN(CC)CCCC(Nc1c2ccc(Cl)cc2nc2ccc(OC)cc12)c1ccncc1 (stereo unspecified) .
stdout: no (0)

stdin: Please let me know the test result on file for C#Cc1cccc(Nc2ncnc3ccc(-c4cnc(Cl)c(NS(C)(=O)=O)c4)cc23)c1 .
stdout: yes (1)

stdin: Please let me know the test result on file for Cc1ccc(C2(C)NC(=O)N(CC(=O)Nc3cccc(C)c3)C2=O)cc1 (stereo unspecified) .
stdout: no (0)

stdin: Please let me know the test result on file for COc1ccc(-c2nc(SCCC(C)C)nc(N/N=C(/C)c3ccc(N)cc3)c2C#N)cc1 .
stdout: no (0)

stdin: Please let me know the test result on file for Cc1ccc(Nc2nc(N)nc(N)c2N=O)cc1Cl .
stdout: no (0)

stdin: Please let me know the test result on file for O=C(Nc1ccc2[nH]ncc2c1)c1csc(Nc2ccccc2)n1 .
stdout: no (0)

stdin: Please let me know the test result on file for C#CCOc1cccc(-c2ncnc3cc(NC(=O)CCl)ccc23)c1 .
stdout: no (0)

stdin: Please let me know the test result on file for O=C(CSc1nc(-c2ccccc2)cn1-c1ccc(Cl)cc1)c1ccc([N+](=O)[O-])cc1 .
stdout: no (0)

###

- Test system: SK-OV-3 ovarian
- experiment.summary: NCI-60 one-dose screen, 48 h (100 = growth as untreated, 0 = no growth, -100 = all killed)
- details: 10 µM unless noted
- Protocol: Growth inhibition of the SK-OV-3 human tumor cell line is measured as a screen for anti-cancer activity. Cells are grown in 96 well plates and exposed to the test compound for 48 hours. Compounds are tested at a single concentration, which is 10^-5 M for most compounds. The reported endpoint is percent growth (GI% or GIPRCNT), where numbers from 0 - 100% represent growth inhibition, and numbers from -100% - 0 represent cell death. For example, a value of 40 represents 60% growth inhibition. […]
Compounds without any hit were thinned out: in the full panel of roughly 83,000, 20% have a hit.
test.readout: growth (%)
Numeric answer only, unit % assumed.

stdin: // growth lookup, key: O=c1ccc2nc(-c3ccccc3)nn(-c3ccccn3)c-2c1
stdout: 83.9

stdin: // growth lookup, key: C/C(=N\NC(=O)c1ccc(C(C)(C)C)cc1)c1ccc(O)cc1O
stdout: 27.7

stdin: // growth lookup, key: CCN=c1sc2c(n1NC(=O)c1cc3ccc1CCc1ccc(cc1)CC3)C(=O)c1ccccc1C2=O
stdout: 62

stdin: // growth lookup, key: C=C(C)[C@@H]1CC[C@]2(C(=O)NC(C)=O)CC[C@]3(C)[C@H](CC[C@@H]4[C@@]5(C)CCCNC(C)(C)[C@@H]5CC[C@]43C)[C@@H]12
stdout: 68.6

stdin: // growth lookup, key: COc1ccc(Cn2cc(C(=O)N=Nc3c(O)[nH]c4ccc(Br)cc34)nn2)cc1
stdout: 108

stdin: // growth lookup, key: [2H]C([2H])([2H])Oc1c(F)cccc1/C=C/C(=O)/C=C(O)/C=C/c1cccc(F)c1OC([2H])([2H])[2H]
stdout: 117

stdin: // growth lookup, key: COc1ccc(CNc2ccc3nc(CCC4CCCCC4)[nH]c3c2)cc1
stdout: 82

stdin: // growth lookup, key: Cc1ccc(C23CCC(=O)N2CCc2cncn23)cc1 (stereo unspecified)
stdout: 92.8

stdin: // growth lookup, key: CN1CCN(Cc2ccc(NC(=O)c3cncc(C#Cc4c(N)ncc5c(F)cccc45)c3)cc2C(F)(F)F)CC1
stdout: 2.69

stdin: // growth lookup, key: CCN1C(=O)N(CC)C2C1NN=c1s/c(=C\c3ccc(F)cc3)c(=O)n12 (stereo unspecified)
stdout: 37.2

stdin: // growth lookup, key: CSc1nn2c(-c3cc4cc(Br)ccc4oc3=O)ccnc2c1C#N
stdout: 105

stdin: // growth lookup, key: C/C=C(/C)C(=O)O[C@@H]1CC(C)(C)CC2C34OC(=O)[C@@]21CC[C@@]3(C)[C@]1(C)CCC2C(C)(C)C(=O)CC[C@]2(C)C1C[C@@H]4O (stereo partly specified)
stdout: 87.8

stdin: // growth lookup, key: CN1CCN(Cn2nc(-c3cc(Cl)cc(Cl)c3Cl)oc2=S)CC1
stdout: 100

stdin: // growth lookup, key: CCOC(=O)/C=C1\S/C(=N\Nc2cc(=O)[nH]c3ccc(OC)cc23)N(c2ccccc2)C1=O
stdout: 104

stdin: // growth lookup, key: O=C1NCCN1/N=C/c1c(Cl)n(Cc2ccc(Cl)cc2)c2ccccc12
stdout: 146

stdin: // growth lookup, key: N#C/C(=N\Nc1ccccc1)C(=O)Nc1cc(-c2ccccc2)nn1-c1ccccc1
stdout: 31.3
